Test system: HCT-15
Test: Growth inhibition of human HCT15 cells by sulforhodamine B assay
Assay type: functional
Calls of active or inactive are those of the source. The calls are words filed in the database; no cut-off is given here.
Measurement type: GI50

Compound: CCCCCCCCCCCCCCCCCC(=O)N1CC[N+](C)(C)CC1
Reported value: 810 nM
--
Compound: C=CC[N+]1(CC)CCN(C(=O)CCCCCCCCCCCCCCC)CC1
Reported value: 1330 nM
--
Compound: CCCCCCCCCCCCCCCC(=O)N1CC[N+](C)(C)CC1
Reported value: 580 nM
--
Compound: CCCCCCCCCCCCCCCCCCCCCC(=O)N1CC[N+](C)(C)CC1
Reported value: 2410 nM
--
Compound: CCCCCCCCCCCCCCCCCCCC(=O)N1CC[N+](C)(C)CC1
Reported value: 540 nM
--
Compound: C=CC[N+]1(CC)CCN(C(=O)CCCCCCCCCCCCCCCCCCCCC)CC1
Reported value: 2780 nM
--
Compound: CCCCCCCCCC(=O)N1CC[N+](C)(C)CC1
Reported value: inactive
--
Compound: CCCCCCCCCCCCCC(=O)N1CC[N+](C)(C)CC1
Reported value: 850 nM
--
Compound: CCCCCCCCCCCCCCCCCCCCCCCC(=O)N1CC[N+](C)(C)CC1
Reported value: inactive
--
Compound: C=CC[N+]1(C)CCN(C(=O)CCCCCCCCCCCCCCCCCCCCC)CC1
Reported value: 2130 nM
--
Compound: CCCCCCCCCCCCCCCCCCCCCC(=O)N1CC[N+](C)(Cc2ccccc2)CC1
Reported value: 2530 nM
--
Compound: CCCCCCCCCCCCCCCC(=O)N1CC[N+](CC)(Cc2ccccc2)CC1
Reported value: inactive
--
Compound: CCCCCCCCCCCCCCCCCCOP(=O)([O-])OC1CC[N+](C)(C)CC1
Reported value: 1250 nM
--
Compound: CCCCCCCCCCCC(=O)N1CC[N+](C)(C)CC1
Reported value: inactive
--
Compound: CCCCCCCCCCCCCCCC(=O)N1CC[N+](C)(Cc2ccccc2)CC1
Reported value: 5060 nM
--
Compound: C=CC[N+]1(C)CCN(C(=O)CCCCCCCCCCCCCCC)CC1
Reported value: inactive
--
Compound: CCCCCCCCCCCCCCCC(=O)N1CC[N+](C)(CC)CC1
Reported value: 1800 nM
--
Compound: CCCCCCCCCCCCCCCCCCCCCC(=O)N1CC[N+](C)(CC)CC1
Reported value: 1690 nM

====

Target: Rho-related GTP-binding protein RhoB (Homo sapiens)
Assay: Transactivation of RhoB expressed in human HeLa cells at 5 uM by dual renilla/firefly luciferase reporter assay
Assay type: cell-based
Active and inactive are the calls of the source. The calls are words filed in the database; no cut-off is given here.
Outcome codes: active, inactive

Compound: C=CC[N+]1(CC)CCN(C(=O)CCCCCCCCCCCCCCCCCCCCC)CC1
Category: active

Compound: CCCCCCCCCCCCCCCCCCCC(=O)N1CC[N+](C)(C)CC1
Category: active

Compound: CCCCCCCCCCCCCCCCCCCCCCCC(=O)N1CC[N+](C)(C)CC1
Category: inactive

Compound: CCCCCCCCCCCCCCCCCCCCCC(=O)N1CC[N+](C)(C)CC1
Category: inactive

Compound: C=CC[N+]1(C)CCN(C(=O)CCCCCCCCCCCCCCC)CC1
Category: active

Compound: C=CC[N+]1(CC)CCN(C(=O)CCCCCCCCCCCCCCC)CC1
Category: active

Sourced from ChEMBL document CHEMBL1795256
